Please provide measured EC50 value (ng/ml), inhibition of RAW264.7 differentiation for the entries that follow.
Target: T1, recombinant human RANKL (soluble, Gly136-Asp317, N-terminal 10 His, expressed in CHO cells) (human, UniProt O14788 136-317)
T1 sequence: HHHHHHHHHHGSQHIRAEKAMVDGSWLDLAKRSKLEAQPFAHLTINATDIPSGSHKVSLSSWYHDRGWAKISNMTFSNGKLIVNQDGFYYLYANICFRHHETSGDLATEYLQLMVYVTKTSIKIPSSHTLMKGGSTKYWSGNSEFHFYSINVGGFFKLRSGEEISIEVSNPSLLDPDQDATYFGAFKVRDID
Assay: cell-based or functional assay
Answer with the number, then the unit.

// query EC50 value (ng/ml), inhibition of RAW264.7 differentiation value for entry 114-7.37.26 (antibody, V domains shown, Murine monoclonal antibody from hybridoma) VH: QVQLQQSGAELASPGASVKLSCKTSGYTFTTYWLQWVKQRPGQGLEWIGAIYPGPGNTKYTQKFKDKATLTADKSASTAYMQLSSLTSEDSAVYYCARRGSRRGIAYWGQGTLVTVSA VL: NIVLTQSPASLAVSLGQRATISCRASESVDSYGRSFMHWYQQRPGQPPTLLIYLASNLESGVPARFSGSGSRTDFTLTIDPVEADDAATYYCQQDNEDPYTFGGGTKLEIK
470 ng/mL

For 114-7.19.12 (antibody, V domains shown, Murine monoclonal antibody purified from hybridoma supernatant) VH: QVQLQQSGAELASPGASVKLSCKASGYTFTTYWLQWVKQRPGQGLEWIGAIYPGPGNTKYTQKFKDKATLTADKSASTAYMQLNSLTSEDSAVYYCARRGSRRGIAYWGQGTLVTVSA VL: NIVLTQSPASLAVSLGQRATISCRASESVDSYGRSFMHWYQQRPGQPPTLLIYLASNLESGVPVRFSGSGSRTDFTLTIDPVEADDAATYYCQQDNEDPYTFGGGTKLEIK , what is its reported EC50 value (ng/ml), inhibition of RAW264.7 differentiation?
267 ng/mL

Please look up its EC50 value (ng/ml), inhibition of RAW264.7 differentiation: 114-5.7.14 (antibody, V domains shown, Murine monoclonal antibody from hybridoma) VH: EVQLQQSGAELVKPGASVKLSCTASGFKIKDTYMHWVRQRPEQGLEWIGRIDSANGNIKYDPKFQGKATITADTSSKTAYLHLSSLTFEDTAVYYCSRPKSNYDFWLPYWGQGTLVTVSA VL: DIQMTQTTSSLSASLGDRVTISCSASQGISNYLNWYQQKPDGTVKLLIYYTSSLHSGVPSRFSGSGSGTDYSLTISNLEPEDIATYYCQQYSKLPLTFGAGTKLELK
315 ng/mL

Which EC50 value (ng/ml), inhibition of RAW264.7 differentiation value belongs to 114-6.6.29 (antibody, V domains shown, Murine monoclonal antibody from hybridoma) VH: DVKLVESGGGLVKPGGSLKLSCAASGFTFSSYTMSWVRQTPEKRLEWVATISSGGSYTYYPDSVKGRFTISRDNAKNTLYLQMSSLKSEDTAMYYCTRDWDYYGTTYVGGYAMDYWGQGTSVTVSS VL: DVLMTQTPLSLPVSLGDQASISCRSSQSIVHSNGNTYLEWYLQKPGQSPKLLIYKVSNRFSGVPDRFSGSGSGTDFTLKISRVEAEDLGVYYCFQGSHVPWTFGGGTKLEIK ?
799 ng/mL

Query: EC50 value (ng/ml), inhibition of RAW264.7 differentiation; subject: 114-2.402 (antibody, V domains shown, Murine monoclonal antibody from hybridoma) VH: EVQLQQSGTELVKPGASVKLSCTLFGFNIKATYMHWVRQRPEQGLEWIGRIDPPNGNTKYDPKFQDKATIKVDTSSNTAYLQLSSLTSEDTAVYYCAREFNRYDVWLAYWGQGTLVTVSA VL: DIQMTQTTSSLSASLGDRVTISCSASQGVSNYLNWYQQKPDGTVKLLIYSTSSLHSGVPSRFSGSGSGTDYSLTISNLEPEDVATYYCQQYSKLPFTFGSGTKLEIKR
396 ng/mL
